Molecular target: Serine/threonine-protein kinase TAO3 (Homo sapiens, UniProt Q9H2K8)
Sequence (Q9H2K8 whole entry): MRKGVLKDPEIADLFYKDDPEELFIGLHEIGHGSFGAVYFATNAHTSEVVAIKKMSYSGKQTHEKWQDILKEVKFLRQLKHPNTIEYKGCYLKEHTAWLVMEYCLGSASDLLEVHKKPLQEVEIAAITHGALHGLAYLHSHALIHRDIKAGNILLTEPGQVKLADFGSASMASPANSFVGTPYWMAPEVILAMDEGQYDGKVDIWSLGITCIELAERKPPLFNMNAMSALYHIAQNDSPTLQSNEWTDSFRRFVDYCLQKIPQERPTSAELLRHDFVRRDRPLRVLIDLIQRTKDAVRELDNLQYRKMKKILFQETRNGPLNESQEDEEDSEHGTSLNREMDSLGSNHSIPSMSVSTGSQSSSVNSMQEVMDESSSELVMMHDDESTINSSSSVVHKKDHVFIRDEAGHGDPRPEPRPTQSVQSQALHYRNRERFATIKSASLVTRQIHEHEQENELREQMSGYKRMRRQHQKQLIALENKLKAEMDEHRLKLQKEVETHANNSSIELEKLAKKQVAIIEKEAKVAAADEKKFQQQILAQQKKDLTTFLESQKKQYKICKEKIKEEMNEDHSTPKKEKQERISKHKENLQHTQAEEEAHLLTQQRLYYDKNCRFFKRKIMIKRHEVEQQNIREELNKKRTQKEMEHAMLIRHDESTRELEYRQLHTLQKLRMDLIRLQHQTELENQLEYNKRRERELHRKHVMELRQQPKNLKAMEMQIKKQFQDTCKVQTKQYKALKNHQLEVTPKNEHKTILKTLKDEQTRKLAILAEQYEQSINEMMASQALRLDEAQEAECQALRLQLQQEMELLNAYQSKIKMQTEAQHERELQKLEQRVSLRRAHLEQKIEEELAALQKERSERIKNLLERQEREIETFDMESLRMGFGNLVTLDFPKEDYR
property: IC50 (nM)

[
  {
    "structure_smiles": "Nc1nccc(-c2cc3c([nH]2)[C@@H](CCF)CNC3=O)n1",
    "measured_number": 126
  }
]

----------
test: Cmax in Wistar rat at 20 mg/kg, po administered as single dose; details: in vivo

[
  {
    "structure_smiles": "Nc1nccc(-c2cc3c([nH]2)[C@@H](CCF)CNC3=O)n1",
    "Cmax, nM": 2000
  }
]

----------
target: UniProt:P07949
Sequence (P07949 whole entry): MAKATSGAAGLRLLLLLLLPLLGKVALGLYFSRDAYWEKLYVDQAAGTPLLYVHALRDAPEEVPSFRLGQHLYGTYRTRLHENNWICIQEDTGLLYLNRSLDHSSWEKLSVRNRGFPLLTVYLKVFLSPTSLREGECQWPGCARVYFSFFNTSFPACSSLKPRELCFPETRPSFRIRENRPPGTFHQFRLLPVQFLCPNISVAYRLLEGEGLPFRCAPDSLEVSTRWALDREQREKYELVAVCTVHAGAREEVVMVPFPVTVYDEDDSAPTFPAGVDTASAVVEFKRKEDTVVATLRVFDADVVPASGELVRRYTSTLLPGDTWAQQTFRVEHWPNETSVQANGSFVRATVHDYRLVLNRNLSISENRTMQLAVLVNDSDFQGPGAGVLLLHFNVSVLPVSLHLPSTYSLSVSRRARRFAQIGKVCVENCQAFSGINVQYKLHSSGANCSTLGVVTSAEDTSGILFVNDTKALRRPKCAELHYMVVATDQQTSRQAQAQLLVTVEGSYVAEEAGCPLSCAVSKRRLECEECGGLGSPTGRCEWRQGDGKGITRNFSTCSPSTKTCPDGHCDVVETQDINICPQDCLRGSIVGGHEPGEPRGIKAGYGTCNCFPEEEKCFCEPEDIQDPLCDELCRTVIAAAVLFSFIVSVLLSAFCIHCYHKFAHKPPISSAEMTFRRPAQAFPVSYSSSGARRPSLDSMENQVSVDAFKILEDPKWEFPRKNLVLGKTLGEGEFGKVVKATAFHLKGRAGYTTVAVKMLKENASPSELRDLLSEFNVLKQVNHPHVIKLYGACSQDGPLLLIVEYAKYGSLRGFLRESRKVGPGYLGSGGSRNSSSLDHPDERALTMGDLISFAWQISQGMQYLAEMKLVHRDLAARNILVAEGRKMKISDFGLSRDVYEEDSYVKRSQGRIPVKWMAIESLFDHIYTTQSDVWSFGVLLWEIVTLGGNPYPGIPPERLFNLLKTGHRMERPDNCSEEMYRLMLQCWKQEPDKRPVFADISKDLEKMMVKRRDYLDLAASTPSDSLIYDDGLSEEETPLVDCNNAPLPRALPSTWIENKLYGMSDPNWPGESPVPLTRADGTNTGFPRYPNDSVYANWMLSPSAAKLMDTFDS
pIC50: −log10 of the molar value.

[
  {
    "structure_smiles": "Nc1nccc(-c2cc3c([nH]2)[C@@H](CCF)CNC3=O)n1",
    "target_under_test": "UniProt:P07949",
    "pIC50": "< 5.40"
  }
]

----------
biological target: Cyclin-dependent kinase 5/CDK5 activator 1 (Homo sapiens, UniProt Q00535); test: Inhibition of CDK5/p25
Sequence (Q00535 whole entry): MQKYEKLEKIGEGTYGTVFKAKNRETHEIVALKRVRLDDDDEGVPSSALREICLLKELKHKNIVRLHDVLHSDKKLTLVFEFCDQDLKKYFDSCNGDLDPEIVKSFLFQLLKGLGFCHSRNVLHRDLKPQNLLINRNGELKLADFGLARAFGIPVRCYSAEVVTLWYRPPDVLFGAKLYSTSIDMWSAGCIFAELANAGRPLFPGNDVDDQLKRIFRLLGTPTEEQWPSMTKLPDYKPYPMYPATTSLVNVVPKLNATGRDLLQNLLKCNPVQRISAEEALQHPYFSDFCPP
Sequence (Q15078 whole entry, further chain): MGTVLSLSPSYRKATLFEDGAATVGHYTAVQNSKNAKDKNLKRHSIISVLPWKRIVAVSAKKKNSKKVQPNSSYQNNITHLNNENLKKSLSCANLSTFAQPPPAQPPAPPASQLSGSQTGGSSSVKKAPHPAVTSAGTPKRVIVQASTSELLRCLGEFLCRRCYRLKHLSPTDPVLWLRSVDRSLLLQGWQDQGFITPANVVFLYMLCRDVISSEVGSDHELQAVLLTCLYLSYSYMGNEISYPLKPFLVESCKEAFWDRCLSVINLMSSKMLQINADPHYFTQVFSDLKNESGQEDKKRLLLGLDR
property: IC50

[
  {
    "structure_smiles": "Nc1nccc(-c2cc3c([nH]2)[C@@H](CCF)CNC3=O)n1",
    "property": "IC50",
    "result": "1620 nM"
  }
]

----------
test: Half life in nu/nu mouse at 10 mg/kg, iv administered as single dose; format: ADME, organism-based; parameters: dose 10 mg/kg, route intravenous; details: in vivo

[
  {
    "compound": "Nc1nccc(-c2cc3c([nH]2)C(CCC(F)(F)F)CNC3=O)n1 (stereo in doubt; 93-2)",
    "half-life (min)": 54
  },
  {
    "compound": "Nc1nccc(-c2cc3c([nH]2)[C@@H](CCF)CNC3=O)n1",
    "half-life (min)": 60
  },
  {
    "compound": "CCC1CNC(=O)c2cc(-c3ccnc(N)n3)[nH]c21 (stereo in doubt; 86-1)",
    "half-life (min)": 12
  }
]
